Cited source for all entries: PubChem BioAssay (NCI)

- System: SK-MEL-5 melanoma
- assay summary: NCI-60 one-dose screen, 48 h (100 = growth as untreated, 0 = no growth, -100 = all killed)
- protocol conditions: 10 µM unless noted
About 83,000 compounds went through this panel and 20% of them were active in at least one assay; those are over-represented in the sample as a whole.
Please go through the items and note down their growth.
Numbers only, in %.

[
  {
    "compound": "COc1ccc(C2=NN(C(C)=O)C(c3c(C)nn(-c4ccccc4)c3N3CCOCC3)C2)cc1 (stereo unspecified)",
    "measured endpoint": "growth",
    "readout number": 97.6
  },
  {
    "compound": "O=C1NC(=O)/C(=C/c2ccc(Cl)cc2Cl)N1",
    "measured endpoint": "growth",
    "readout number": 108
  },
  {
    "compound": "COc1ccc(NS(=O)(=O)N2CCCCC2)cc1",
    "measured endpoint": "growth",
    "readout number": 97.1
  },
  {
    "compound": "O=C(Nc1ccccc1S)c1ccccc1",
    "measured endpoint": "growth",
    "readout number": 114
  },
  {
    "compound": "Cc1cc(C)c(C(=O)c2cccs2)c(C)c1",
    "measured endpoint": "growth",
    "readout number": 109
  }
]

Turning to the following compound.
Note down growth recorded for `COc1ccc(CC(=O)Nc2nn3c(-c4cc(C(F)(F)F)cc(C(F)(F)F)c4)nnc3s2)cc1` 2.85
